- experiment: NCI Yeast Anticancer Drug Screen. Data for the cln2 rad14 strain (AID 165);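 note: 0% = growth equal to vehicle treated cultures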
- particulars: S. cerevisiae cln2 rad14 strain, at 50.0 µM (retest, dose inferred, filed as 5.0), stronger effect = higher value
This is part of a sample that, as a whole, favours compounds with a hit. Of some 79,000 tested, about 15% had one in any assay.
Consider the following compounds; for each one, report its growth inhibition.
Provide only the numeric value, understood in %.

Ask: Fill blank: measured growth inhibition of the compound CC12CCC(CC(=O)/C1=C(/Br)I)C2(C)C (stereo unspecified) is ____.
Reply: 68

Ask: Fill blank: measured growth inhibition of the compound COC(=O)C1=C(C(=O)OC)CC(n2nnc(C(=O)OC)c2C(=O)OC)=CC1 is ____.
Reply: -2

Ask: Fill blank: measured growth inhibition of the compound O=C(NNc1ccccc1)C(CCCCNS(=O)(=O)Cc1ccccc1)NS(=O)(=O)Cc1ccccc1 (stereo unspecified) is ____.
Reply: 46

Ask: Fill blank: measured growth inhibition of the compound C[C@H](CCC1=NC(C)(C)CO1)C1CCC2[C@@H]3C(O)C[C@@H]4CC(O)CC[C@]4(C)C3CC[C@@]21C (stereo partly specified) is ____.
Reply: 96

Ask: Fill blank: measured growth inhibition of the compound COC1=CCC23C(=O)C=CC(=O)C2(C1)C(=O)c1ccccc1C3=O (stereo unspecified) is ____.
Reply: -49

Ask: Fill blank: measured growth inhibition of the compound COc1ccc2cc(C(C)C(=O)N3CCOC3=O)ccc2c1 (stereo unspecified) is ____.
Reply: 17

Ask: Fill blank: measured growth inhibition of the compound C=CCNC1=C2C[C@@H](C)C[C@H](OC)[C@H](O)[C@@H](C)/C=C(\C)[C@H](OC(N)=O)[C@@H](OC)/C=C\C=C(/C)C(=O)NC(=CC1=O)C2=O is ____.
Reply: 97

Ask: Fill blank: measured growth inhibition of the compound CCN(CC)CCCNc1ccc([N+](=O)[O-])c2nc3ccc(OC)cc3c(NCCCN(CC)CC)c12 is ____.
Reply: 57

Ask: Fill blank: measured growth inhibition of the compound OC(CC(O)(C(F)(F)F)C(F)(F)F)c1ccc(C(O)CC(O)(C(F)(F)F)C(F)(F)F)cc1 (stereo unspecified) is ____.
Reply: 100

Ask: Fill blank: measured growth inhibition of the compound Cc1cc(OCc2nc(N)nc(N)c2-c2ccc(Cl)c(Cl)c2)ccc1[N+](=O)[O-] is ____.
Reply: 30

Ask: Fill blank: measured growth inhibition of the compound CN(C)CCCn1c2c3ccccc3ccc2c2oc(=O)c3ccccc3c21 is ____.
Reply: 97

Ask: Fill blank: measured growth inhibition of the compound O=NC1c2cccc3cccc(c23)C1N=O (stereo unspecified) is ____.
Reply: 92

Ask: Fill blank: measured growth inhibition of the compound CCN(CC)CC(=O)c1ccc2cc(Cl)c3ccccc3c2c1 is ____.
Reply: 99

Ask: Fill blank: measured growth inhibition of the compound CCCCCCCCCCCCCCCCCCNC(=S)/N=C/c1c(O)c2ccccc2[nH]c1=O is ____.
Reply: 16

Ask: Fill blank: measured growth inhibition of the compound O=[N+]([O-])c1ccc(S(=O)(=O)Cc2ccccc2)c([N+](=O)[O-])c1 is ____.
Reply: 99

Ask: Fill blank: measured growth inhibition of the compound CCCCCCCC/C=C\CCCCCCCCN is ____.
Reply: 96

Ask: Fill blank: measured growth inhibition of the compound CC(C)OP(=O)(OC(C)C)C(=NCCO)NNc1ccc([N+](=O)[O-])cc1 is ____.
Reply: 48

Ask: Fill blank: measured growth inhibition of the compound Cc1ccc(C)c(C(=N)c2ccccc2Cc2ccccc2)c1 is ____.
Reply: 93

Ask: Fill blank: measured growth inhibition of the compound O=C1c2ccccc2-c2cc3ccccc3c(=O)n21 is ____.
Reply: 15

Ask: Fill blank: measured growth inhibition of the compound CCOC(=S)SSSC(=S)OCC is ____.
Reply: 92

Ask: Fill blank: measured growth inhibition of the compound OC(c1ccccc1)(c1ccccc1)c1nccc2ccccc12 is ____.
Reply: 7

###

- experiment: NCI Yeast Anticancer Drug Screen. Data for the wt2 strain (AID 169);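 note: 0% = growth of vehicle-treated yeast cultures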
- particulars: S. cerevisiae wt2 strain growth inhibition; at 11.0 µM
- Procedure: Growth inhibition of yeast strains with defined genetic alterations is measured as a screen for potential anti-cancer activity. Selected strains with alterations in DNA damage repair or cell cycle control were exposed to compounds and growth inhibition was measured relative to vehicle treated controls. The strain used in this assay is wt2
Compounds without any hit were thinned out: in the full panel of roughly 79,000, 15% have a hit. The source made the active and inactive calls. Cut-off read from the data, not from the text of the source: active = growth inhibition above about 70%; inactive = the rest.
Respond only with the outcome that fits, drawn from active, inactive

Ask: Short answer needed: outcome of this test for O=[N+]([O-])c1ccc(C(c2c[nH]c3ccccc23)c2c[nH]c3ccccc23)cc1 ?
Reply: active

Ask: Short answer needed: outcome of this test for ClCCCOc1c(Cl)cc(Cl)cc1Cl ?
Reply: inactive

Ask: Short answer needed: outcome of this test for O=C1Nc2ccc(Br)cc2C1=Nc1ccc(Cl)cc1 ?
Reply: inactive

Ask: Short answer needed: outcome of this test for CCOP(=O)(OCC)/C(C#N)=C/c1ccc(-c2ccc(F)cc2F)o1 ?
Reply: inactive

Ask: Short answer needed: outcome of this test for [N-]=[N+]=NC1(c2ccccc2)C(=O)Nc2ccccc2C1=O (configuration not stated) ?
Reply: inactive

Ask: Short answer needed: outcome of this test for CCCCCCCCCCCCOCCOCCOCC(N)=O ?
Reply: inactive

Ask: Short answer needed: outcome of this test for Cc1ccc(NC(Nc2ccc(C)cc2C)=C(C(Cl)=C(Cl)Cl)[N+](=O)[O-])c(C)c1 ?
Reply: inactive

Ask: Short answer needed: outcome of this test for Cc1cccc2c1C1c3c(C)cccc3C(CC(=O)O)CC1CC2 (configuration not stated) ?
Reply: active

Ask: Short answer needed: outcome of this test for CCC(/C=C/c1ccccc1)=N\Nc1ccc(Cl)c(Cl)c1 ?
Reply: inactive

Ask: Short answer needed: outcome of this test for CN1C(=O)C(CC(=O)O)NC1=S (configuration not stated) ?
Reply: inactive

Ask: Short answer needed: outcome of this test for CCOC(=S)SSSC(=S)OCC ?
Reply: inactive

Ask: Short answer needed: outcome of this test for Cc1ccc(NC(=O)CCC(=O)C(C)C(=O)c2ccccc2)c(C)c1 (configuration not stated) ?
Reply: inactive

###

Consider the following molecules; for each one, report its growth inhibition.
- experiment: NCI Yeast Anticancer Drug Screen. Data for the mlh1 strain (AID 171);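 note: 0% = growth of vehicle-treated control cultures of the same strain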
- particulars: S. cerevisiae mlh1 strain growth inhibition; at 1.2 µM; stronger effect = higher value
About 79,000 compounds went through this panel and 15% of them were active in at least one assay; those are over-represented in the sample as a whole.
Provide only the numeric value, understood in %.

Ask: Fill blank: measured growth inhibition of the molecule CCCCS/C(=C(/C#N)C(N)=O)c1cc2c([nH]1)CCCC2 is ____.
Reply: -13

Ask: Fill blank: measured growth inhibition of the molecule CCOP(=O)(OCC)/C(C#N)=C/c1ccc(-c2ccc(F)cc2F)o1 is ____.
Reply: -1

Ask: Fill blank: measured growth inhibition of the molecule c1ccc2c(c1)ccn2CCc1c[nH]c2ccccc12 is ____.
Reply: -18

Ask: Fill blank: measured growth inhibition of the molecule Cc1c2c(nc3ccccc13)C(=O)c1cccnc1C2=O is ____.
Reply: 22

Ask: Fill blank: measured growth inhibition of the molecule O=C(C#Cc1ccccc1)Nc1ccccc1 is ____.
Reply: -15

Ask: Fill blank: measured growth inhibition of the molecule N#CCC(=O)N/N=C(\c1ccccc1)C(c1ccccc1)C1(O)C(=O)Nc2c(Cl)ccc(Cl)c21 (stereo unspecified) is ____.
Reply: 0

Ask: Fill blank: measured growth inhibition of the molecule CCOC(=O)/C(=C\c1ccc(F)cc1)C(C)=O is ____.
Reply: 2

Ask: Fill blank: measured growth inhibition of the molecule CC(=O)O/N=C1C=C/C(=C(/C#N)c2ccccc2)C=C/1C is ____.
Reply: 3

Ask: Fill blank: measured growth inhibition of the molecule C/C(=N\OCC(O)CNCCSCc1ccccc1)c1ccccc1Cl (stereo unspecified) is ____.
Reply: 3

Ask: Fill blank: measured growth inhibition of the molecule CCOc1ccc2nc3ccccc3c(N)c2c1 is ____.
Reply: 7

Ask: Fill blank: measured growth inhibition of the molecule CCCCCCCN(CCCCCCC)CC(=O)c1ccc2cc(Cl)c3ccccc3c2c1 is ____.
Reply: -9

###

- experiment: NCI Yeast Anticancer Drug Screen. Data for the rad50 strain (AID 155);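 note: 0% = growth of vehicle-only cultures of the same strain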
- particulars: S. cerevisiae rad50 strain growth inhibition; at 3.7 µM; stronger effect = higher value
Compounds without any hit were thinned out: in the full panel of roughly 79,000, 15% have a hit.
Consider the following compounds; for each one, report its growth inhibition.
Provide only the numeric value, understood in %.

Ask: Fill blank: measured growth inhibition of the compound CCCCCCCC/C=C\CCCCCCCCN is ____.
Reply: -7

Ask: Fill blank: measured growth inhibition of the compound CCCNC(=O)OCc1c(COC(=O)NCCC)c(-c2ccc(Cl)c(Cl)c2)n2c1CCC2 is ____.
Reply: -43

Ask: Fill blank: measured growth inhibition of the compound CO[C@@]1([C@@H](Cl)c2ccccc2)C(=O)N(C)/C(=C\c2ccccc2)C(=O)N1C is ____.
Reply: 6

Ask: Fill blank: measured growth inhibition of the compound CCC(C)COC(=O)Nc1cccc(Cl)c1 (centres undefined) is ____.
Reply: 22
